Test system: Escherichia coli TOP10;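 further: peptides expressed intracellularly from a pBAD plasmid library in pooled LB shake-flask culture, induced with 0.3% L-arabinose, DNA abundance read by NGS, three biological replicates, DESeq2 with apeglm shrinkage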
Experiment: shrunken log2 fold change of peptide-encoding DNA abundance (4.5 h post-induction vs induction); higher = less antimicrobial activity (less host growth inhibition)
Details: time post-induction: 4.5 h; library: site-saturation at positions 5, 18, 19, 20
Give True when the value for shrunken log2 fold change is at least -0.4. Give False when it is less.

Solved entries (count: 6):
RRIRERPPRLPRPRPRPDYWPRP | True
RRIRERPPRLPRPRPRPSRFPRP | True
RRIRPRPPRLPRPRPRPYCCPRP | True
RRIRCRPPRLPRPRPRPKEHPRP | True
RRIRVRPPRLPRPRPRPQYHPRP | False
RRIRVRPPRLPRPRPRPHDKPRP | True

Would you say RRIRFRPPRLPRPRPRPHWDPRP shows shrunken log2 fold change at minimum -0.4? True

Would you say RRIRCRPPRLPRPRPRPLYGPRP shows shrunken log2 fold change at minimum -0.4? False
